Examples of molecules with documented IC50 follow.
# test: Cytotoxicity against human Bel7402 cells assessed as growth inhibition rate after 96 hrs by MTT assay
# Type: functional, cell-based
# test_parameters: Bel-7402, 96 h

CCCCCCCCCc1c2[n+](cc3c4c(ccc13)OCO4)CCc1cc3c(cc1-2)OCO3.[Cl-]: > 5 µg/mL
CC(C)CCc1c2[n+](cc3c4c(ccc13)OCO4)CCc1cc3c(cc1-2)OCO3.[Cl-]: > 5 µg/mL
CCCCCCCc1c2[n+](cc3c4c(ccc13)OCO4)CCc1cc3c(cc1-2)OCO3.[Cl-]: 1.92 µM
FC(F)(F)c1cccc(Cc2c3[n+](cc4c5c(ccc24)OCO5)CCc2cc4c(cc2-3)OCO4)c1.[Cl-]: > 10 µM
COc1ccc(Cc2c3[n+](cc4c5c(ccc24)OCO5)CCc2cc4c(cc2-3)OCO4)cc1.[Cl-]: > 10 µM
CCCCCCCCCCCCc1c2[n+](cc3c4c(ccc13)OCO4)CCc1cc3c(cc1-2)OCO3.[Cl-]: 1.32 µM

Find the recorded IC50 belonging to `FC(F)(F)c1cc(Cc2c3[n+](cc4c5c(ccc24)OCO5)CCc2cc4c(cc2-3)OCO4)cc(C(F)(F)F)c1.[Cl-]` and report it.
> 10 µM

Repeat for the following molecule: `CCOC(=O)c1c2[n+](cc3c4c(ccc13)OCO4)CCc1cc3c(cc1-2)OCO3.[Cl-]`
> 10 µM

###

Measured IC50, listed per entry.
# test: Cytotoxicity against human Bel7402 cells assessed as growth inhibition rate after 96 hrs by MTT assay
# Format: functional, cell-based
# test_parameters: Bel-7402, 96 h

O=[N+]([O-])c1ccc(Cc2c3[n+](cc4c5c(ccc24)OCO5)CCc2cc4c(cc2-3)OCO4)cc1.[Cl-]: > 10 µM
CCCCCc1c2[n+](cc3c4c(ccc13)OCO4)CCc1cc3c(cc1-2)OCO3.[Cl-]: > 5 µg/mL
[Cl-].c1c2c(cc3c1OCO3)-c1cc3ccc4c(c3c[n+]1CC2)OCO4 [COPTISINE CHLORIDE]: > 14.1 µM

Pending compound:
Can you share its IC50? I mean this compound: `CCCc1c2[n+](cc3c4c(ccc13)OCO4)CCc1cc3c(cc1-2)OCO3.[Cl-]`
> 5 µg/mL

###

Each record here notes measured IC50.
# test: Cytotoxicity against human Bel7402 cells assessed as growth inhibition rate after 96 hrs by MTT assay
# Assay type: functional, cell-based
# test_parameters: Bel-7402, 96 h

// known answers, use as guide
Fc1ccc(Cc2c3[n+](cc4c5c(ccc24)OCO5)CCc2cc4c(cc2-3)OCO4)c(F)c1.[Cl-]: > 10 µM
Fc1ccccc1Cc1c2[n+](cc3c4c(ccc13)OCO4)CCc1cc3c(cc1-2)OCO3.[Cl-]: > 10 µM
CCOC(=O)Cc1c2[n+](cc3c4c(ccc13)OCO4)CCc1cc3c(cc1-2)OCO3.[Cl-]: > 10 µM
CCCCCCCCc1c2[n+](cc3c4c(ccc13)OCO4)CCc1cc3c(cc1-2)OCO3.[Cl-]: 1.43 µM
CCCCc1c2[n+](cc3c4c(ccc13)OCO4)CCc1cc3c(cc1-2)OCO3.[Cl-]: > 5 µg/mL
CCCCCCCCCCCc1c2[n+](cc3c4c(ccc13)OCO4)CCc1cc3c(cc1-2)OCO3.[Cl-]: 1.22 µM
CCCCCCCCCCc1c2[n+](cc3c4c(ccc13)OCO4)CCc1cc3c(cc1-2)OCO3.[Cl-]: 1.43 µM
Cc1c2[n+](cc3c4c(ccc13)OCO4)CCc1cc3c(cc1-2)OCO3.[Cl-]: > 5 µg/mL

Sample `[Cl-].c1ccc2cc(Cc3c4[n+](cc5c6c(ccc35)OCO6)CCc3cc5c(cc3-4)OCO5)ccc2c1` — what was its IC50?
> 10 µM

Try the compound `N#Cc1ccc(Cc2c3[n+](cc4c5c(ccc24)OCO5)CCc2cc4c(cc2-3)OCO4)cc1.[Cl-]`
> 10 µM

And `Fc1cccc(Cc2c3[n+](cc4c5c(ccc24)OCO5)CCc2cc4c(cc2-3)OCO4)c1.[Cl-]` ?
> 10 µM

###

# test: Cytotoxicity against human Bel7402 cells assessed as growth inhibition rate after 96 hrs by MTT assay
# Assay type: functional, cell-based
# test_parameters: Bel-7402, 96 h
Overview of reported IC50 across a group of compounds:

Cc1ccc(Cc2c3[n+](cc4c5c(ccc24)OCO5)CCc2cc4c(cc2-3)OCO4)cc1.[Cl-]: > 10 µM

Quick one: IC50 of `CCc1c2[n+](cc3c4c(ccc13)OCO4)CCc1cc3c(cc1-2)OCO3.[Cl-]` ?
> 5 µg/mL

And the next one, `C1=C2c3cc4c(cc3CCN2Cc2c1ccc1c2OCO1)OCO4` ?
> 5 µg/mL

What do you have for `CCCCCCc1c2[n+](cc3c4c(ccc13)OCO4)CCc1cc3c(cc1-2)OCO3.[Cl-]` ?
3.05 µM

Repeat with `O=c1[nH]cc(F)c(=O)[nH]1`
2.23 µM
